Target: T1, 4H678-AA
T1 chain: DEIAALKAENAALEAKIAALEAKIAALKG
Assay: two-hybrid library CCmax;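 also: natural log of median RNA to DNA barcode read ratio; higher means stronger binding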
Details: mean of both orientations
Please provide measured interaction score for the entries that follow.
Would you mind answering with just the numeric figure?

Query string: Could you tell me which interaction score is on file for DKIAALKAKIAALEAENAALEAKIAALEG [4H2837-AA] ?
Result string: -1.18

Query string: Moving on to the next binder: DKIAALEAKIAALEAKNAALEAEIAALKG [4H2354-AA]
Result string: -1.46

Query string: Moving on to the next binder: DENAALKAEIAALEAEIAALKAKNAALKG [4H1552-AA]
Result string: -0.931

Query string: Moving on to the next binder: DKNAALEAKIAALKAKIAALEAENAALEG [4H3427-AA]
Result string: -1.47

Query string: Moving on to the next binder: DKNAALKAKIAALEAEIAALEAENAALKG [4H3844-AA]
Result string: 0.663

Query string: Moving on to the next binder: DKIAALKAENAALKAEIAALEAEIAALKG [4H2754-AA]
Result string: 1.82

Query string: Moving on to the next binder: DEIAALEAKIAALEAKNAALKAKIAALEG [4H317-AA]
Result string: 0.755

Query string: Moving on to the next binder: DKIAALKAENAALEAKIAALKAEIAALEG [4H2729-AA]
Result string: 1.97

Query string: Moving on to the next binder: DKIAALEAKNAALKAEIAALKAEIAALEG [4H2505-AA]
Result string: 1.78

Query string: Moving on to the next binder: DKIAALKAKIAALKAEIAALEAENAALEG [4H2883-AA]
Result string: 0.155

Query string: Moving on to the next binder: DKIAALEAEIAALKAKNAALEAKIAALEG [4H2165-AA]
Result string: -0.25

Query string: Moving on to the next binder: DKIAALKAEIAALKAENAALEAEIAALKG [4H2642-AA]
Result string: -1.06

Query string: Moving on to the next binder: DKNAALKAEIAALEAENAALEAKIAALKG [4H3606-AA]
Result string: -0.771

Query string: Moving on to the next binder: DENAALEAKIAALEAKIAALKAENAALKG [4H1324-AA]
Result string: -1.52
